Assay: qHTS of pediatric cancer cell lines to identify multiple opportunities for drug repurposing: Confirmatory screen for Rh18 cells (AID 1347125);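 further: cells exposed to compound for 48 h; nearly all actives have a fitted effect of over 55% in size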
Details: Rh18 rhabdomyosarcoma cells, viability; series mostly up to 45.9 µM
Inconclusive results are not listed. Calls of active or inactive are those of the source. The call rests on the fitted dose curve; in most records, active means well fitted cell-killing curve with a large enough effect; inconclusive means small, poorly fitted or top-dose-only effect, or effect the other way; inactive means flat fitted curve, though single readings scatter.
Write down one outcome, taken from active, inactive

Q: What classification did `CCS(=O)(=O)Nc1ccc2[nH]c(O)c(C(=Nc3ccc(CN4CCCCC4)cc3)c3ccccc3)c2c1` end up with in this test?
Result: active

Q: # lookup: test call for `CC(C=CC1=C(C)CCCC1(C)C)=CC=CC(C)=CC(=O)Nc1ccc(O)cc1`
Result: active

Q: Hey, what did the test say about `COc1ccc(C=Cc2cc(OC)c(OC)c(OC)c2)cc1NC(=O)[C@H](N)CO` ?
Result: inactive

Q: Please indicate how the test categorized `COC(=O)[C@@H]1[C@H]2C[C@@H]3c4[nH]c5ccccc5c4CCN3C[C@@H]2CC[C@@H]1O` .
Result: inactive

Q: For `O=C(C=CC=Cc1ccc2c(c1)OCO2)N1CCCCC1` , what call appears in the results of this test?
Result: inactive

Q: # outcome recorded in this test, key = `COc1ccc(C[C@@H](C)[C@@H](C)Cc2ccc(OC)c(OC)c2)cc1OC`
Result: inactive

Q: What call does the record list for `CS[C@H]1SC[C@@H]2C(=O)N(C)[C@H](C(C)C)C(=O)OC[C@H](NC(=O)c3cnc4ccccc4n3)C(=O)N[C@H](C)C(=O)N(C)[C@@H]1C(=O)N(C)[C@H](C(C)C)C(=O)OC[C@H](NC(=O)c1cnc3ccccc3n1)C(=O)N[C@H](C)C(=O)N2C` ?
Result: inactive

Q: Fill in: this test's call for `CNC(=O)Nc1ccc(-c2nc(N3CC4CCC(C3)O4)c3cnn(C4CCC5(CC4)OCCO5)c3n2)cc1` is ___
Result: active

Q: Status in this test for CC(C(C)N1CC(=O)NC(=O)C1)N1CC(=O)NC(=O)C1 (stereo not drawn) ?
Result: inactive

Q: // param item: `COc1cccc2c1C(=O)c1c(O)c3c(c(O)c1C2=O)C[C@@](O)(C(=O)CO)C[C@@H]3O[C@H]1C[C@H](N)[C@@H](O)[C@H](C)O1` ; yields the recorded call
Result: active

Q: Would you mind telling me which call this test gave `CN[C@H]1[C@@H](O)[C@@H]2O[C@@H]3O[C@H](C)CC(=O)[C@]3(O)O[C@@H]2[C@@H](NC)[C@H]1O` ?
Result: inactive

Q: How did this test come out for `N#CNC(=NCCCCCCOc1ccc(Cl)cc1)Nc1ccncc1` ?
Result: active

Q: Called result for `Cn1cnc(=N)c2[nH]cnc21`
Result: inactive
